# measurement_description: Selectivity index, ratio of EC50 for human HeLa cells to EC50 for bloodstream form of Trypanosoma brucei brucei 427
# Format: toxicity, cell-based
# test_settings: read-out: Ratio EC50
Would you mind telling me the reported selectivity ratio of each entry?

Q: Reported selectivity ratio for C=CCOc1ccc(NC(=O)c2ccc([N+](=O)[O-])o2)cc1 : what is it?
Result: > 258

Q: For the compound shown here, O=C(NC1CCCCC1)c1ccc([N+](=O)[O-])o1 , give the reported selectivity ratio.
Result: > 86

Q: Need selectivity ratio of CCCCOC(=O)c1cc(CC)sc1NC(=O)c1ccc([N+](=O)[O-])o1 , thanks.
Result: > 625

Q: Quick check: selectivity ratio of O=C(Nc1cccs1)c1ccc([N+](=O)[O-])o1 ?
Result: > 322

Q: # selectivity ratio lookup, item COC(=O)c1ccc(NC(=O)c2ccc([N+](=O)[O-])o2)cc1
Result: > 29

Origin of the recorded values: ChEMBL document CHEMBL2311355
